Hello, the source for this data is the Human Domainome abundance scans (Beltran et al. 2025), in case you need it.

B1: Homeobox protein cut-like 2, residues 895 to 963; numbered along this chain, O14529 (parent)
chain: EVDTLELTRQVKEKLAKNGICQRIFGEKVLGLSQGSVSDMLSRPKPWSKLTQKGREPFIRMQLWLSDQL

variants of: B1; test: abundance fitness (aPCA) (normalised: wild type 0, dead -1); higher = more abundant; growth selection in yeast, the domain comes from the species named; conditions: Homo sapiens
Threshold check on abundance fitness: at or above -0.1 gives Condition met, strictly below gives Condition not met.

Please check the record S36Q and state if its abundance fitness is at or above -0.1.
Condition met

Please check the record R55T and state if its abundance fitness is at or above -0.1.
Condition not met

Please check the record I24A and state if its abundance fitness is at or above -0.1.
Condition not met

Please check the record G19V and state if its abundance fitness is at or above -0.1.
Condition not met

Please check the record G31D and state if its abundance fitness is at or above -0.1.
Condition not met

Please check the record L32E and state if its abundance fitness is at or above -0.1.
Condition not met

Please check the record R23N and state if its abundance fitness is at or above -0.1.
Condition met

Please check the record V11H and state if its abundance fitness is at or above -0.1.
Condition not met

Please check the record G31K and state if its abundance fitness is at or above -0.1.
Condition not met

Please check the record T4M and state if its abundance fitness is at or above -0.1.
Condition met

Please check the record E56N and state if its abundance fitness is at or above -0.1.
Condition not met

Please check the record M40S and state if its abundance fitness is at or above -0.1.
Condition not met

Please check the record V37N and state if its abundance fitness is at or above -0.1.
Condition not met

Please check the record A16T and state if its abundance fitness is at or above -0.1.
Condition met
